All values here come from ChEMBL document CHEMBL1127577.

target: Proto-oncogene tyrosine-protein kinase Src (Homo sapiens)
Sequence (P12931 2-536 limits assumed): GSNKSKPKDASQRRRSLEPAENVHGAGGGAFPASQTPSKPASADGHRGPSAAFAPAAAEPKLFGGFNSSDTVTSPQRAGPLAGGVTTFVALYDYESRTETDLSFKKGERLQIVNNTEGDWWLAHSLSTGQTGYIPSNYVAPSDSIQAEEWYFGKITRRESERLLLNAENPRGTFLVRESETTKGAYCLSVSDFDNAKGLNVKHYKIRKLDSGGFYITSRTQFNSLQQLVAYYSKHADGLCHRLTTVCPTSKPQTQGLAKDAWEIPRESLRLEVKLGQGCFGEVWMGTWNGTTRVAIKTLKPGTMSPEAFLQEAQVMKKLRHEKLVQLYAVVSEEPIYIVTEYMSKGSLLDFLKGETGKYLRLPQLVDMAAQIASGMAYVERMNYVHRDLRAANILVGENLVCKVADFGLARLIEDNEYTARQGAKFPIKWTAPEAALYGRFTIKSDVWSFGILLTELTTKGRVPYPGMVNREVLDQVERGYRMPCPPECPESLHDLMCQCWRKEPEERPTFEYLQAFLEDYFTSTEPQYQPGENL
experiment-description: Tested for in vitro inhibitory activity against tyrosine protein kinase pp60 c-src
pIC50: −log10 of the molar value.
Quick rule for you: pIC50 at 5 or higher means Condition met, lower means Condition not met.

Check if pIC50 >= 5 (inclusive). Item: O=C(c1ccc(C(F)(F)F)cc1)n1c2cc(O)c(O)cc2c2c(Br)cc(O)c(O)c21
Condition met

Follow-up entry: O=S(=O)(c1ccccc1)n1c2cc(O)c(O)cc2c2ccc(O)c(O)c21
Condition not met

Follow-up entry: O=c1c2c(O)c(O)ccc2c2cc(O)c(O)cc2n1Cc1ccc(Cl)c(Cl)c1
Condition not met

Follow-up entry: Oc1cc2[nH]c3c(O)c(O)cc(Br)c3c2cc1O
Condition met

# ---- query compound ----
Check if pIC50 >= 5 (inclusive). Item: O=C(c1ccccc1)n1c2cc(O)c(O)cc2c2cc(O)c(O)cc21
Condition met
